- Method Notes: Permeability of the compound at pH 7.4 by PAMPA method
- Type: ADME
- Condition Details: read-out: permeability
Lab note: anything with Papp at or over 0.1 ×10⁻⁶ cm/s counts as Yes; the rest go in No.

{"columns": ["Compound", "Label"],
 "data": [
  ["Nc1nccc2c1CCC(C(=O)N[C@@H](Cc1ccccc1)c1nc(-c3ccc4c(N)n[nH]c4c3)c(Cl)[nH]1)C2 (single isomer, unassigned; diastereomer A)", "Yes"],
  ["NC[C@H]1CC[C@H](C(=O)N[C@@H](Cc2ccccc2)c2nc(-c3ccc4c(N)n[nH]c4c3)c(Cl)[nH]2)CC1", "No"],
  ["Nc1nccc2cc(C(=O)N[C@@H](Cc3ccccc3)c3nc(-c4ccc5c(N)n[nH]c5c4)c(Cl)[nH]3)ccc12", "Yes"],
  ["C[C@H]1CC[C@H](C(=O)N[C@@H](Cc2ccccc2)c2nc(-c3ccc4c(N)n[nH]c4c3)c(Cl)[nH]2)CC1", "Yes"],
  ["COc1cc(F)c(C(=O)N[C@@H](Cc2ccccc2)c2nc(-c3ccc4c(N)n[nH]c4c3)c(Cl)[nH]2)c(F)c1", "Yes"],
  ["Cc1ccc(C(=O)N[C@@H](Cc2ccccc2)c2nc(-c3ccc4c(N)n[nH]c4c3)c(Cl)[nH]2)c(F)c1", "Yes"]
]}

---

pKi: −log10 of the molar value.
Record type: pKi measurement. Applies to: Tissue-type plasminogen activator (Homo sapiens)

{"columns": ["Compound Smiles", "Readout Relation", "pKi"],
 "data": [
  ["COC(=O)Nc1ccc(-c2c[nH]c([C@H](Cc3ccccc3)NC(=O)/C=C/c3cc(Cl)ccc3-n3cnnn3)n2)cc1", "=", 4.77],
  ["Nc1n[nH]c2cc(-c3nc([C@H](Cc4ccccc4)NC(=O)/C=C/c4cc(Cl)ccc4-n4cnnn4)[nH]c3Cl)ccc12", "=", 4.72],
  ["NC[C@H]1CC[C@H](C(=O)N[C@@H](Cc2ccccc2)c2nc(-c3ccc4c(N)n[nH]c4c3)c(Cl)[nH]2)CC1", "<", 4.66]
]}

---

- Method Notes: Volume of distribution at steady state in dog at 0.5 mg/kg, po or 0.4 mg/kg, iv administered in cassette format
- Assay type: ADME, organism-based, Canis lupus familiaris
- Condition Details: in vivo, read-out: Vdss

{"columns": ["Compound Smiles", "Output Unit", "Vd"],
 "data": [
  ["Nc1n[nH]c2cc(-c3nc([C@H](Cc4ccccc4)NC(=O)NCc4cc(Cl)ccc4-n4cnnn4)[nH]c3Cl)ccc12", "L/kg", 1.4],
  ["COC(=O)Nc1ccc(-c2nc([C@H](Cc3ccccc3)NC(=O)CCc3cc(Cl)ccc3-n3cnnn3)[nH]c2Cl)cc1", "L/kg", 4.4],
  ["COc1cc(F)c(C(=O)N[C@@H](Cc2ccccc2)c2nc(-c3ccc4c(N)n[nH]c4c3)c(Cl)[nH]2)c(F)c1", "L/kg", 1.3],
  ["COC(=O)Nc1ccc(-c2nc([C@H](Cc3ccccc3)NC(=O)NCc3cc(Cl)ccc3-n3cnnn3)[nH]c2Cl)cc1", "L/kg", 2.8],
  ["Cc1ccc(C(=O)N[C@@H](Cc2ccccc2)c2nc(-c3ccc4c(N)n[nH]c4c3)c(Cl)[nH]2)c(F)c1", "L/kg", 1.9],
  ["Nc1nccc2cc(C(=O)N[C@@H](Cc3ccccc3)c3nc(-c4ccc5c(N)n[nH]c5c4)c(Cl)[nH]3)ccc12", "L/kg", 1],
  ["NC(=O)c1ccc(C(=O)N[C@@H](Cc2ccccc2)c2nc(-c3ccc4c(N)n[nH]c4c3)c(Cl)[nH]2)cc1", "L/kg", 1.5]
]}

---

- Tested On: Trypsin (Homo sapiens, UniProt P07477+P07478+P35030)
- Method Notes: Inhibition of human trypsin at 25 degC
- Type: protein assay

{"columns": ["Compound", "Readout Relation", "Ki [µM]"],
 "data": [
  ["Nc1n[nH]c2cc(C(=O)N[C@@H](Cc3ccccc3)c3nc(-c4ccc5c(N)n[nH]c5c4)c(Cl)[nH]3)ccc12", "=", 1.4],
  ["NC(=O)c1ccc(C(=O)N[C@@H](Cc2ccccc2)c2nc(-c3ccc4c(N)n[nH]c4c3)c(Cl)[nH]2)cc1", ">", 5],
  ["Nc1nccc2c1CCC(C(=O)N[C@@H](Cc1ccccc1)c1nc(-c3ccc4c(N)n[nH]c4c3)c(Cl)[nH]1)C2 (stereo in doubt; 6)", "=", 1.43],
  ["NCC12CCC(C(=O)N[C@@H](Cc3ccccc3)c3nc(-c4ccc5c(N)n[nH]c5c4)c(Cl)[nH]3)(CC1)CC2", "=", 1.04],
  ["Nc1nccc2c1CCC(C(=O)N[C@@H](Cc1ccccc1)c1nc(-c3ccc4c(N)n[nH]c4c3)c(Cl)[nH]1)C2 (single isomer, unassigned; diastereomer B)", "=", 0.36],
  ["Cc1ccc(C(=O)N[C@@H](Cc2ccccc2)c2nc(-c3ccc4c(N)n[nH]c4c3)c(Cl)[nH]2)cc1", ">", 5],
  ["Nc1n[nH]c2cc(-c3nc([C@H](Cc4ccccc4)NC(=O)c4ccc5c(N)noc5c4)[nH]c3Cl)ccc12", ">", 5],
  ["NCc1ccc(C(=O)N[C@@H](Cc2ccccc2)c2nc(-c3ccc4c(N)n[nH]c4c3)c(Cl)[nH]2)cc1", "=", 0.059],
  ["Nc1n[nH]c2cc(-c3nc([C@H](Cc4ccccc4)NC(=O)/C=C/c4cc(Cl)ccc4-n4cnnn4)[nH]c3Cl)ccc12", ">", 6.2],
  ["Cc1ccc(C(=O)N[C@@H](Cc2ccccc2)c2nc(-c3ccc4c(N)n[nH]c4c3)c(Cl)[nH]2)c(F)c1", ">", 5],
  ["C[C@H]1CC[C@H](C(=O)N[C@@H](Cc2ccccc2)c2nc(-c3ccc4c(N)n[nH]c4c3)c(Cl)[nH]2)CC1", ">", 6],
  ["NCc1ccc(C(=O)N[C@@H](Cc2ccccc2)c2nc(-c3ccc4c(N)n[nH]c4c3)c(Cl)[nH]2)c(F)c1", "=", 0.058]
]}

---

- Method Notes: Oral bioavailability in dog at 0.5 mg/kg administered in cassette format
- Assay type: ADME, organism-based, Canis lupus familiaris
- Condition Details: in vivo
Catalogue of bioavailability readings, one per entry.

{"columns": ["Molecule", "bioavailability"],
 "data": [
  ["Nc1nccc2c1CCC(C(=O)N[C@@H](Cc1ccccc1)c1nc(-c3ccc4c(N)n[nH]c4c3)c(Cl)[nH]1)C2 (single isomer, unassigned; diastereomer A)", "< 2%"],
  ["C[C@H]1CC[C@H](C(=O)N[C@@H](Cc2ccccc2)c2nc(-c3ccc4c(N)n[nH]c4c3)c(Cl)[nH]2)CC1", "< 1%"],
  ["Nc1nccc2cc(C(=O)N[C@@H](Cc3ccccc3)c3nc(-c4ccc5c(N)n[nH]c5c4)c(Cl)[nH]3)ccc12", "< 2%"]
]}
